APE1 percent activity, Replicate 2 values, listed per item
target: APE1 (Homo sapiens); construct: purchased New England Biolabs (NEB) M0282S; assay: APE1 fluorescent oligonucleotide activity assay (abasic site substrate); format: biochemical; conditions: compound at 25 μM; Replicate 2
Sequence (P27695 whole entry): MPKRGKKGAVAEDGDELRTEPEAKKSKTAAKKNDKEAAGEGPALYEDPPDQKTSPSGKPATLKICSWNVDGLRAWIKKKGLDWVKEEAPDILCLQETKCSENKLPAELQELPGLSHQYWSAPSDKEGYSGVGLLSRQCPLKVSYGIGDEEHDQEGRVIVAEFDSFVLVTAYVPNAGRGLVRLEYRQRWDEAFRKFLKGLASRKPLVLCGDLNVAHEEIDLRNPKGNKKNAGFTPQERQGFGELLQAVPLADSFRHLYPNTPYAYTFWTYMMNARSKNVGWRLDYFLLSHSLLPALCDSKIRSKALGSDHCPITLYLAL
Please reply with the bare figure in % and do not write the unit itself.

Before answering, review these 5 worked examples.
Compound	Meas Value
Cc1ccc(NC(=O)CSc2nc(-c3ccccc3F)nc3c2Cc2c(CO)cnc(C)c2O3)cc1 [AD28]	119.222
Nn1cnn2c(SCC(=O)Cc3ccc(-c4nc5cc(NC(=O)CSc6nnc7n(N)cnn67)ccc5o4)cc3)nnc12 [AD16]	100.33
COc1ccc(OC)c(NS(=O)(=O)c2ccc(NS(=O)(=O)c3cccc([N+](=O)[O-])c3)cc2)c1 [AD36]	104.892
C[C@H]1C[C@H](C)CN(CCCNc2ccc(C(=O)Nc3ccc(C(F)(F)F)cc3)cc2[N+](=O)[O-])C1 [AD9]	114.522
Nn1cnn2c(SCC(=O)Nc3nnc(SCC(=O)Nc4ccc(S(N)(=O)=O)cc4)s3)nnc12 [AD29]	79.0708

Any idea what APE1 percent activity, Replicate 2 was measured for O=C(Cn1nc(-c2ccc(Br)cc2)ccc1=O)NC[C@H]1CC[C@H](C(=O)O)CC1 [AD43] ?
108.363
